test: viability of HCT116 lacking mutant beta-catenin – cell-based, human colon tumor, dose response (AID 1045); assay type: functional;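 also: HCT116 colon tumor cells with beta catenin knocked out; cells exposed to compound for 60 hours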
Active and inactive are the calls of the source.
readout.label: EC50

Prompt: Look at this compound and give its reported EC50. CC1(C)CC2=NC3=C(C(=O)c4ccccc43)C(c3ccc(Cl)cc3)C2=C(O)C1 (stereo unspecified)
Completion: 13.8 µM (active)

Prompt: Queued: CCCCn1c(SCc2ncc(-c3ccccc3)o2)nc2cc(S(N)(=O)=O)ccc21
Completion: 27.4 µM (active)

Prompt: Here is the next compound: Cc1ccc(N/C=C2/C(=O)N(c3ccc4c(c3)OCO4)C(=O)c3ccccc32)cc1
Completion: 9.32 µM (active)

Prompt: Please do the same for Cc1nn(-c2ccccn2)c2c1C(c1ccccc1Cl)C1=C(N2)c2ccccc2C1=O (stereo unspecified) as well.
Completion: 24.9 µM (active)

Prompt: Now consider [O-][n+]1onc2c3cc(-c4ccccc4)[nH]c3ccc21 .
Completion: 0.597 µM (active)

Prompt: Lookup CN(C1=C(NC(=O)c2ccc(Cl)cc2)C(=O)c2ccccc2C1=O)c1ccccc1
Completion: 8.39 µM (active)

====

Recorded IC50 values for a group of compounds are listed next.
target: High affinity choline transporter 1 (Homo sapiens, UniProt Q9GZV3); test: human choline transporter blockers, potency – cell-based, 5-point CRC, membrane potential dye, dose response (AID 504840); type: functional
Sequence (Q9GZV3 whole entry): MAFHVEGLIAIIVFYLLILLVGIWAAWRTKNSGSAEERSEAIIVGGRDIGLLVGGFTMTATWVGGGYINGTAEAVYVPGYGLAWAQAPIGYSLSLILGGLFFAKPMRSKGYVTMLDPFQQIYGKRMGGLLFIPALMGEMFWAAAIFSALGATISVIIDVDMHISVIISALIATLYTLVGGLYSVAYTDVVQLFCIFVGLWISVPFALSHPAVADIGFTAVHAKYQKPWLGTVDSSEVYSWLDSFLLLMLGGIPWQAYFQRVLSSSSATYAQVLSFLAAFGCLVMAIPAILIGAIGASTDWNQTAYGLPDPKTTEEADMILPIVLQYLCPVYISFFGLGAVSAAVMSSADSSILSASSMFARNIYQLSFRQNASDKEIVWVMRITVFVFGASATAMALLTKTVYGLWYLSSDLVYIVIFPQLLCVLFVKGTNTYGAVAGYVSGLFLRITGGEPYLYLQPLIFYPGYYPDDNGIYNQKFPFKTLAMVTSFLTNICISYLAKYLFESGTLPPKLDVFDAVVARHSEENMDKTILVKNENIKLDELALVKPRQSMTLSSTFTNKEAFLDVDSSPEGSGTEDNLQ
Active and inactive are the calls of the source.

compound	IC50
c1ccc(CCCCN2C(Nc3ccccc3)=NC[C@@H]2Cc2ccccc2)cc1	12 µM (active)
C[N+](C)(C)CCOC(=O)CBr	14.1 µM (active)
COc1ccc(C(C(=O)NC2CCCCC2)N(C(=O)c2ccco2)c2ccccc2C(C)=O)cc1OC (configuration not stated)	2 µM (active)

Prompt: // map Cn1/c(=N/CC(O)COc2ccccc2)sc2ccccc21 (configuration not stated) to recorded IC50 (system: High affinity choline transporter 1 (Homo sapiens, UniProt Q9GZV3))
Completion: 13.5 µM (active)

Prompt: Do the same for C[n+]1ccccc1COc1ccc(C(C)(C)C)cc1 please
Completion: 13.8 µM (active)

Prompt: Note, next up: Nc1ncnc2c1ncn2C1OC(C(=O)NC2CC2)C(O)C1O (configuration not stated)
Completion: 2.41e-05 µM (inconclusive)

Prompt: Field entry: CC1CCCCN1CCNC(=O)CN1C(=O)CSc2ccc(S(=O)(=O)N3CCCCC3)cc21 (configuration not stated)
Completion: 12.9 µM (active)

====

Each entry below carries its reported CC50.
assay: microbe, parasite or virus in culture; type: functional; details: Mycobacterium tuberculosis
Active and inactive are the calls of the source.

Prompt: Quick one: CC50 for COc1ccc(-c2ccnc3nc(N4CCN(c5ccccc5)CC4)nn23)cc1 ?
Completion: > 40 µM (active)

Prompt: Now consider Cc1ccc(NC(=S)N(CCCN2CCCC2)Cc2cccn2Cc2ccc(Cl)cc2)cc1C .
Completion: 17.7 µM (active)

Prompt: And what about the compound COc1cc(NC(=O)c2ccc(C(C)(C)C)cc2)c(OC)cc1NC(=O)CN1CCCCC1 ?
Completion: > 40 µM (active)

Prompt: // repeat for Oc1ccccc1/N=C/c1ccc[nH]1 and report
Completion: > 40 µM (active)

====

molecular target: Zinc finger protein mex-5 (Caenorhabditis elegans, UniProt Q9XUB2); experiment: potency of MEX-5 RNA-binding blockers – biochemical, C. elegans, fluorescence polarization, dose response (AID 1960)
Sequence (Q9XUB2 whole entry): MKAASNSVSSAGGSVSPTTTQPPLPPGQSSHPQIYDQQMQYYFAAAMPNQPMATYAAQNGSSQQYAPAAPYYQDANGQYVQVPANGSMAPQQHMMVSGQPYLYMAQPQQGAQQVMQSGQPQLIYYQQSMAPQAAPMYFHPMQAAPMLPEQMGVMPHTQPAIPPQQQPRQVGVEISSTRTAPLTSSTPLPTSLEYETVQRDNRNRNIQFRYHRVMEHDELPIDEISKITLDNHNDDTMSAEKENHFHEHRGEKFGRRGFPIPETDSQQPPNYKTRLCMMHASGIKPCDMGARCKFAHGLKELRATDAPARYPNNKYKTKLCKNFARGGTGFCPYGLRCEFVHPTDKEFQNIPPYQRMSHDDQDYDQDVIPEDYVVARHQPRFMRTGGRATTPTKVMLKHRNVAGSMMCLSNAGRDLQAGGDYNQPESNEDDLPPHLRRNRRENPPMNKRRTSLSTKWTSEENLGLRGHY
The source made the active and inactive calls.
readout.label: EC50

// worked examples, EC50 included
molecule	EC50
CCOc1ccc2ccccc2c1C1NC(=O)N(C)C(C)=C1C(=O)OCCOC (centres undefined)	> 300 µM (not active)
CCn1c(C)nc2cc(N)ccc21	4.59 µM (active)
COc1cc(C(CCN2CCCC2)c2c(OC)cc(OC)c3c(-c4ccccc4)cc(=O)oc23)cc(OC)c1OC (centres undefined)	> 300 µM (not active)

Prompt: Notebook: pull reported EC50 for Zinc finger protein mex-5 (Caenorhabditis elegans, UniProt Q9XUB2), entry Cc1c(C(=O)O)cccc1-n1c(C)cc(/C=C(/C#N)C(=O)NCc2ccccc2)c1C
Completion: > 300 µM (not active)

Prompt: Now this one: O=C(/C=C/c1ccco1)NC(=S)NNC(=O)c1ccco1
Completion: 15.7 µM (active)

Prompt: Request: NS(=O)(=O)c1ccc2c(c1)C1C=CCC1C(C1CC=CCC1)N2 (centres undefined)
Completion: 20.7 µM (inconclusive)

Prompt: Consider next the molecule CCC(C)/C=C(C)/C=C/C1=CC2=C(Cl)C(=O)C(C)(OC(C)=O)C(=O)C2=CO1 (centres undefined) in the same way.
Completion: > 300 µM (not active)

Prompt: // next record COc1ccc(NC(=O)Nc2cc(C)cc(C)c2)cn1
Completion: 27.4 µM (active)

Prompt: Another molecule: Cc1cc(/C=C2\SC(=S)N(Cc3ccco3)C2=O)c(C)n1-c1cccnc1
Completion: 20.2 µM (inconclusive)

====

molecular target: DNA repair and recombination protein RAD54-like (Homo sapiens); experiment: RAD54 Holliday junction migration blockers – biochemical, fluorescence, cherry-picked samples, dose series, confirmation (AID 651657); assay type: functional
Sequence (Q92698 whole entry): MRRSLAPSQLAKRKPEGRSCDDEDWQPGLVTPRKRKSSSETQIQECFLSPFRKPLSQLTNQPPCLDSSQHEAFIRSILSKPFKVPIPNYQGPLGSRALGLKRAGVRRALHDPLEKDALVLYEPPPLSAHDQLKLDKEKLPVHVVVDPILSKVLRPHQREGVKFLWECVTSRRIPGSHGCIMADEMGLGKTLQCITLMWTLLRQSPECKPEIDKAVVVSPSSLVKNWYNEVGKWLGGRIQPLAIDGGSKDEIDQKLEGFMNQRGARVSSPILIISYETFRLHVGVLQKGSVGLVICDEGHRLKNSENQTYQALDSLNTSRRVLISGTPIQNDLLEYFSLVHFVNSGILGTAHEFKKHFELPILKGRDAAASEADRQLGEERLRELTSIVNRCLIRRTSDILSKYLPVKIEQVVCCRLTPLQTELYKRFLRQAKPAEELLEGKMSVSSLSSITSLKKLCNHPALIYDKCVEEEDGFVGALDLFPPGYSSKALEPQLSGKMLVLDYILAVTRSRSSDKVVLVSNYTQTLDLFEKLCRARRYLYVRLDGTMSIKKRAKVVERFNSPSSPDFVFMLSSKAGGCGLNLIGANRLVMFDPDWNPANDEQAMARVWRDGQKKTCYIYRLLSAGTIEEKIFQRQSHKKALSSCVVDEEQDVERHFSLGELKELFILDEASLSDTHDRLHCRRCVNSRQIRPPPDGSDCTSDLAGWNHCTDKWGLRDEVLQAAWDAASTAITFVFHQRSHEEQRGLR
Active and inactive are the calls of the source.
Each entry below lists one item and its recorded AC50 value.

CCCN(CCC)CCCNC(=O)c1cc2c(=O)n(C)c3ccccc3c2n1C 36.8 µM (active)

Prompt: # get_value(readout='AC50', item= COc1cc2sc3cc(NCC[C@@H]4CCCN4C)ccc3c(=O)c2cc1OC )
Completion: 6.9 µM (active)

Prompt: Same again, this time with CCN(CC)CCN1C(=O)c2cccc3cc(N)cc(c23)C1=O
Completion: 8.83 µM (active)

Prompt: What about this compound? Cc1c(C)n(CCN(C)C)c2ccc(C(=O)OCCN(C)C)cc12
Completion: 8.41 µM (active)

====

Molecular target: Streptokinase A (Streptococcus pyogenes serotype M1)
Sequence (P10520 whole entry): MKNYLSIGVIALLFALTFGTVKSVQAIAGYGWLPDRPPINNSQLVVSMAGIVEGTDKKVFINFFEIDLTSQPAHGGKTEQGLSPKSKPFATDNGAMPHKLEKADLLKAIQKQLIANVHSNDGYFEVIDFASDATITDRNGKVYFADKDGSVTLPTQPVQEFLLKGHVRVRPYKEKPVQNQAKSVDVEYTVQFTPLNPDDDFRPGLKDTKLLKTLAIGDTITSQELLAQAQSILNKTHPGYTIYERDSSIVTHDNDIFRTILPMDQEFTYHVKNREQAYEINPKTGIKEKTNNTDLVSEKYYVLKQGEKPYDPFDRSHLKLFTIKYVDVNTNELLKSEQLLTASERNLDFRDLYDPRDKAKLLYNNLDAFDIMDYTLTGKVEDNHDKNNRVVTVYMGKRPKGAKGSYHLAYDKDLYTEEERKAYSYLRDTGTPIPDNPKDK
Experiment: viability-normalized secreted streptokinase activity reduction – plasminogen activation absorbance, OD405, dose response (AID 1914);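 also: secreted streptokinase activity via plasminogen activation per viability signal from cell pellet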
Type: functional, Streptococcus pyogenes M1 GAS
Activity calls are given as the source filed them.
readout.label: EC50

Prompt: Dear colleague, I am looking for the recorded EC50 of the following compound: CCC(Oc1ccccc1)C(=O)Nc1ccccc1N1CCCCC1 (stereo unspecified)
Completion: 15.8 µM (active)

Prompt: Next compound up: COc1ccc(C2CC(O)(c3ccccc3)Oc3c(C)ccc(C)c32)cc1 (stereo unspecified)
Completion: > 150 µM (not active)

Prompt: Same question, COC(=O)c1cc(S(=O)(=O)n2nc(C)c(Br)c2C)c(Cl)cc1Cl this time
Completion: > 150 µM (not active)

Prompt: Repeat with Cn1c(O)c(N=NC(S)=Nc2ccccc2F)c2cc(S(=O)(=O)N3CCOCC3)ccc21
Completion: > 150 µM (not active)

Prompt: Likewise for CC1Oc2cc3c(-c4c(O)cc(O)c5c(O)c6c(cc45)OC(C)C(C)C6=O)c(O)cc(O)c3c(O)c2C(=O)C1C (stereo unspecified) ?
Completion: 1.74 µM (active)

Prompt: Another: CCc1ccc(/C=C2\SC(=S)N(CCCC(=O)Nc3ccc(C(=O)O)cc3)C2=O)cc1
Completion: > 150 µM (not active)

Prompt: And then CC1=C(C(=O)O)N2C(=O)C(NC(=O)Cc3ccccc3)C2SC1 (stereo unspecified) , what is it?
Completion: > 150 µM (not active)

Prompt: Ok, now O=C(/C=C/c1cccc(C(F)(F)F)c1)Nc1cccc(C(F)(F)F)c1
Completion: > 50 µM (not active)

Prompt: Moving on to CC(=O)Nc1ccc(C#Cc2ccc(NC(C)=O)cc2)cc1
Completion: > 150 µM (not active)

Prompt: Now the compound COc1ccc2c(c1)C(=NNc1ccc(C(=O)O)cc1)c1cc(OC)ccc1-2
Completion: > 150 µM (not active)

Prompt: Please give the result for O=C(Oc1ccc(-c2cnc3ccccc3n2)cc1)c1ccc(Cl)c([N+](=O)[O-])c1 too.
Completion: > 150 µM (not active)

====

# EC50 values compiled below
biological target: Zinc finger protein mex-5 (Caenorhabditis elegans); test: potency of MEX-5 RNA-binding blockers – biochemical, C. elegans, fluorescence polarization, dose response (AID 1960)
Activity calls are given as the source filed them.

compound	assay.target	EC50
CCN(CC)CCN1C(=O)c2cccc3cc(N)cc(c23)C1=O	Zinc finger protein mex-5 (Caenorhabditis elegans)	5.13 µM (inconclusive)
CC(=O)C1=C(c2ccccc2)NC(=O)NC1c1ccc(O)c(O)c1 (stereo unspecified)	Zinc finger protein mex-5 (Caenorhabditis elegans)	43.4 µM (active)
O=c1oc2ccc(Cl)cc2nc1/C=C(\O)c1cccs1	Zinc finger protein mex-5 (Caenorhabditis elegans)	153 µM (active)

Prompt: Data request, read-out EC50, for CCCSc1nnc(NC(=O)Nc2ccccc2)s1
Completion: > 300 µM (not active)

Prompt: Field entry: COc1ccc(NC(=O)C2Cc3ccccc3CN2C(=O)c2ccccc2)cn1 (stereo unspecified)
Completion: > 300 µM (inconclusive)
